Source listed as patent US20140364438A1.

Target: JAK3 (Homo sapiens, UniProt P52333)
Construct: purchased Invitrogen PV3855
Sequence (P52333 781-1124 limits assumed): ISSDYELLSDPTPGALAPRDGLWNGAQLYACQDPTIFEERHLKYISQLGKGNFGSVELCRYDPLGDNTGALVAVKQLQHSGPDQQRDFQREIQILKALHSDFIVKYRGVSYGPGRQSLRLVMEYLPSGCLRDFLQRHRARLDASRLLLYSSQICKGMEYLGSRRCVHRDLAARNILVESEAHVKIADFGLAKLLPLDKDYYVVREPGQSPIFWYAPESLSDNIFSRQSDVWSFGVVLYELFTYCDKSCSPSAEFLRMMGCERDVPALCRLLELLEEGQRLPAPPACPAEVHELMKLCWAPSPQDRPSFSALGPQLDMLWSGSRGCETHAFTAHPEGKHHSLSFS
Experiment: JAK3 kinase inhibitory activity, Z-Lyte Kinase Assay Kit
Format: biochemical
Details: numeric value in parentheses, 60 minutes at room temperature
pIC50: −log10 of the molar value.

# Molecular String, pIC50
records = [
    ("C=CC(=O)Nc1cccc(Oc2cccn3nc(Nc4ccc(N5CCN(C)CC5)cc4)nc23)c1", 8.05),
]

---

IC50 listing for selected molecules.
Biological target: BTK (Homo sapiens)
Construct: purchased Invitrogen PV3190
Sequence (Q06187 whole entry): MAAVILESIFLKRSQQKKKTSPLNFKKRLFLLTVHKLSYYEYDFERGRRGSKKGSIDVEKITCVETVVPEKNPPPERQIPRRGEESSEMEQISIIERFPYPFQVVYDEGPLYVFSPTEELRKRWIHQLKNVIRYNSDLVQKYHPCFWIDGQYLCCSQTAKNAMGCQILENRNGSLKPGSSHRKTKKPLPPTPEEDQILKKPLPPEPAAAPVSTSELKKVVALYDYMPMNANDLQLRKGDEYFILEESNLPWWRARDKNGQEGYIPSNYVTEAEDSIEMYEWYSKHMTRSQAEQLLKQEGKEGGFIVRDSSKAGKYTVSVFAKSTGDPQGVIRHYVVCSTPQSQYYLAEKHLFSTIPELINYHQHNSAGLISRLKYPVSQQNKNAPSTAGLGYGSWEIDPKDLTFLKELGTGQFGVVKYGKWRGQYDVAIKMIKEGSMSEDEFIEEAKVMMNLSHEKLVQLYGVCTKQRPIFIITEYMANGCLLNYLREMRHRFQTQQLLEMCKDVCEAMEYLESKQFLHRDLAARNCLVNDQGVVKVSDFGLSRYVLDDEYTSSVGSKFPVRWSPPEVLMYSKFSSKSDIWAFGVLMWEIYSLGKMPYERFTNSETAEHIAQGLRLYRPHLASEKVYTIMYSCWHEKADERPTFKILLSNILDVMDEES
Assay: BTK kinase inhibitory activity, Z-Lyte Kinase Assay Kit
Assay type: biochemical
Conditions: class symbol, 60 minutes at room temperature

# Molecular String, IC50
data = [
    ("C=CC(=O)Nc1cccc(Oc2cccn3nc(Nc4ccc(C(=O)N5CCN(C)CC5)cc4)nc23)c1", "0.1 to 0.5 µM"),
    ("C=CC(=O)Nc1cccc(Oc2cccn3nc(Nc4ccc(N5CCN(C)CC5)cc4)nc23)c1", "≤ 0.1 µM"),
    ("C=CC(=O)Nc1cccc(Oc2cccn3nc(Nc4ccc(NC5CCN(C)CC5)c(F)c4)nc23)c1", "0.1 to 0.5 µM"),
    ("C=CC(=O)Nc1cccc(Oc2cccn3nc(Nc4ccc(CN(C)C)cc4)nc23)c1", "0.1 to 0.5 µM"),
    ("C=CC(=O)Nc1cccc(Oc2cccn3nc(Nc4ccc(N5CCN(C(C)C)CC5)cc4)nc23)c1", "0.5 to 1 µM"),
]
